Property name: melting point

Assign melting point to the following record: CC(C)(C)OC(=O)N1CC[C@H](c2ccc(OCC3OCCO3)cc2)[C@@H](O)C1 (racemic)
136 to 137 °C

Check the records and state melting point for `COc1cc(S(N)(=O)=O)cnc1Cl`
156 to 158 °C

Give recorded melting point. `NCCCCc1c[nH]c(-c2ccc(F)cc2)c1-c1ccncc1`
185 to 187 °C

Identify the reported melting point for the following entry. `CCOC(=O)c1cc(=O)c2ccccc2[nH]1`
210 to 212 °C

Specify reported melting point for the compound shown: `Cc1nc(-c2ccc(C#N)cc2)sc1C(=O)N(CC(=O)O)[C@H](C)[C@](O)(Cn1cncn1)c1ccc(F)cc1F`
153 to 159 °C

Give melting point for the following compound: `C[C@@H]1O[C@](C#CC2CC2)(C(F)(F)F)c2cc(Cl)ccc2NC1=O`
145 to 146 °C

Note down melting point recorded for `Cn1cc2cc3ncc(-c4ccc(Cl)s4)nc3cc2n1`
222 to 224 °C

Supply reported melting point belonging to this compound: `O=C(O)Cn1c(-c2cccc(C(F)(F)F)c2)nc2cccnc21`
240 to 242 °C

Give the reported value of melting point for this record: CCOC(OCC)c1ccc(C(O)(c2ccc3nc(OC)cc(-c4cccc(Cl)c4)c3c2)c2cncn2C)cc1 (stereo not given)
80 °C

Fill in melting point for record `O=C(N[C@H]1CC[C@H](CCN2CCN(c3nccc4c3OCC4)CC2)CC1)c1ccc(-n2cccc2)cc1`
236 °C

Tell me melting point reported for COc1ccc2c(c1)C(C)(CC(=O)O)C(=O)N2C (stereo not given)
120 to 121 °C

Return melting point for the following compound: CC1CC(C)CN(Cc2ccc(NC(=O)C#Cc3ccc(-c4ccc(Cl)cc4)cc3)cc2)C1 (stereo not given)
209 to 214 °C

Answer with the recorded melting point for the compound listed here: `O=S(=O)(c1nc2c([nH]1)-c1ccc(F)cc1Oc1ccccc1-2)C(F)(F)C(F)F`
171 to 173 °C
